ASSAYED_TARGET: T1, CRBN, Q96SW2;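 also: pooled lentiviral library of zinc finger degron-EGFP fusions in mCherry-positive Jurkat cells, FACS-sorted after compound exposure, with degron abundance counted by next-generation sequencing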
T1 chain: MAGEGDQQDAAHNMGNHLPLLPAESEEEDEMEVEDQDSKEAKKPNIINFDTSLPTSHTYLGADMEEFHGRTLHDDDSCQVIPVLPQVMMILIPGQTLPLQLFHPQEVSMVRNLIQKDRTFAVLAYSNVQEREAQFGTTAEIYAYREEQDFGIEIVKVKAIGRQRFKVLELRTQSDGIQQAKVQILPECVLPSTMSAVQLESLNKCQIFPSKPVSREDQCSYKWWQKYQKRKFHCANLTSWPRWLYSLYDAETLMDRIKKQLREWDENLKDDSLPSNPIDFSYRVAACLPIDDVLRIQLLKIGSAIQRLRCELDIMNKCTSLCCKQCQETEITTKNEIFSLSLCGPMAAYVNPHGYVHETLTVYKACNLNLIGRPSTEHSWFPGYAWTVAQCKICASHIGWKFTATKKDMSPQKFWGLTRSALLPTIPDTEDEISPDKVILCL
METHOD: log2 fold change of degron read counts, EGFP-low vs EGFP+ sorted cells (limma voom), compound-induced degradation; higher = more compound-induced degradation of the degron-EGFP fusion; degrons are variants of IKZF1/3 zinc finger 2; compound dose not given here
REPORTED_CONDITIONS: Jurkat; 18 h; compound: compound 19 (5-tert-butyl-thalidomide)
The full ranking holds about 8,300 sequences; the median of “log2 fold change of degron read counts, EGFP-low vs EGFP+ sorted cells (limma voom), compound-induced degradation” is about -1.1, and the highest 2% start at about 3.2. The sample as a whole holds a higher share of the highest values than the screen did.
Below, each of the sequences is paired with its reported log2 fold change of degron read counts value.
A bare number is all that is needed in reply.

[
  {
    "CONSTRUCT_SEQUENCE": "FYCDICGAMFTQKGNLLRHIKL [46F_47Y_49D_50I_52G_53A_54M_55F_67L_, Q9UKT9]",
    "log2 fold change of degron read counts": 2.46
  },
  {
    "CONSTRUCT_SEQUENCE": "FGCEICGHGFTQKGNLLRHIKL [46F_47G_49E_50I_52G_53H_54G_55F_67L_, Q9UKT9]",
    "log2 fold change of degron read counts": -2.33
  },
  {
    "CONSTRUCT_SEQUENCE": "FACEVCGAKFTQKGNLLRHIKL [46F_47A_49E_50V_52G_53A_54K_55F_67L_, Q9UKT9]",
    "log2 fold change of degron read counts": 3.92
  },
  {
    "CONSTRUCT_SEQUENCE": "FTCDVCGALFTQKGNLLRHIKL [46F_47T_49D_50V_52G_53A_54L_55F_67L_, Q9UKT9]",
    "log2 fold change of degron read counts": -1.7
  },
  {
    "CONSTRUCT_SEQUENCE": "FQCEICGAHFTQKGNLLRHIKL [46F_47Q_49E_50I_52G_53A_54H_55F_67L_, Q9UKT9]",
    "log2 fold change of degron read counts": -0.0399
  }
]

Looking up FNCEICGAHFTQKGNLLRHIKL [46F_47N_49E_50I_52G_53A_54H_55F_67L_, Q9UKT9] , I see its log2 fold change of degron read counts listed as 2.65

Looking up FRCEVCGAKFTQKGNLLRHIKL [46F_47R_49E_50V_52G_53A_54K_55F_67L_, Q9UKT9] , I see its log2 fold change of degron read counts listed as -0.518
